// values below are reported MTD (mice)
Tested on: female C57BL/6 mice
Experiment: Determination of maximum tolerated dose (MTD), serum calcium / hypercalcemia
Conditions: oral daily for four days; highest dose without hypercalcemia (serum calcium>10.7 mg/dl)
measured_attribute: MTD (mice) (µg/kg)

molecule="C=C1/C(=C\\C=C2/CCC[C@]3(C)C(C4(CCCC(C)(C)O)CC4)=CCC23)CC(OC(C)=O)C[C@@H]1OC(C)=O (some centres unmarked) [(39)]" target_or_test_system="female C57BL/6 mice" measured_attribute="MTD (mice)" measured_value=3
molecule="C=C1/C(=C\\C=C2/CCC[C@]3(C)C(C(C)CC#CC(O)(C(F)(F)F)C(F)(F)F)=CCC23)CC(OC(C)=O)C[C@@H]1OC(C)=O (some centres unmarked) [(14)]" target_or_test_system="female C57BL/6 mice" measured_attribute="MTD (mice)" measured_value=10
molecule="C=C1/C(=C\\C=C2/CCC[C@]3(C)C(C(C)CC#CC(C)(C)O)=CCC23)CC(OC(C)=O)C[C@@H]1OC(C)=O (some centres unmarked) [(7)]" target_or_test_system="female C57BL/6 mice" measured_attribute="MTD (mice)" measured_value=10
molecule="CC(=O)OC1C/C(=C/C=C2\\CCC[C@@]3(C)C2CCC3C2(C/C=C/C(O)(C(F)(F)F)C(F)(F)F)CC2)C[C@@H](OC(C)=O)C1 (some centres unmarked) [(31)]" target_or_test_system="female C57BL/6 mice" measured_attribute="MTD (mice)" measured_value=0.3
molecule="C=C1/C(=C\\C=C2/CCC[C@@]3(C)C2CCC3C(C)CC#CC(C)(C)O)CC(OC(C)=O)C[C@@H]1OC(C)=O (some centres unmarked) [(41)]" target_or_test_system="female C57BL/6 mice" measured_attribute="MTD (mice)" measured_value=1
molecule="CC(CC#CC(O)(C(F)(F)F)C(F)(F)F)C1=CCC2C(=CC=C3CC(O)CC(O)C3)CCCC12C (centres unmarked) [(3), reference compound]" target_or_test_system="female C57BL/6 mice" measured_attribute="MTD (mice)" measured_value=0.3
molecule="CC(=O)OC1C/C(=C/C=C2\\CCC[C@]3(C)C(C4(CCCC(C)(C)O)CC4)=CCC23)C[C@@H](OC(C)=O)C1 (some centres unmarked) [(37)]" target_or_test_system="female C57BL/6 mice" measured_attribute="MTD (mice)" measured_value=10
molecule="C=C1/C(=C\\C=C2/CCC[C@@]3(C)C2CCC3C2(CC#CC(C)(C)O)CC2)CC(OC(C)=O)C[C@@H]1OC(C)=O (some centres unmarked) [(29)]" target_or_test_system="female C57BL/6 mice" measured_attribute="MTD (mice)" measured_value=30
